Biological target: human OX2R (Homo sapiens, UniProt O43614)
Construct: expressed in transfected cells; host or cells: Chinese hamster ovary (CHO) cells, kept under G418 selection
Test: IPOne (IP-One) orexin receptor agonist assay in CHO cells expressing human OX2R
Type: cell-based
Settings: CHO cells expressing human OX2R; IP-One detection; 2 hours incubation; four parameter logistic fit; read-out: OX2R Potency, EC50
Excerpt: The utility of the compounds in accordance with the present invention as orexin receptor OX1R and/or OX2R agonists may be readily determined without undue experimentation by methodology well known in the art. […] The utility of the compounds in accordance with the present invention as orexin receptor OX1R and/or OX2R agonists may be determined utilizing this assay. […]
Please respond with reported EC50 for every item in the list.

The following molecules have reported results that may help.
>  <molecule>
CS(=O)(=O)N[C@H]1CCN(c2nccs2)[C@H]1CO[C@H]1CC[C@@H](c2ccccc2)CC1

>  <EC50>
70.2 nM

$$$$
>  <molecule>
COc1cnc(N2CC[C@H](NS(C)(=O)=O)[C@@H]2CO[C@H]2CC[C@@H](c3ccccc3)CC2)cc1O

>  <EC50>
35.8 nM

$$$$
>  <molecule>
CS(=O)(=O)N[C@H]1CCN(c2cc(O)ncc2F)[C@H]1CO[C@H]1CC[C@@H](c2ccccc2)CC1

>  <EC50>
169 nM

$$$$
>  <molecule>
Cc1c(N2CC[C@H](NS(C)(=O)=O)[C@@H]2CO[C@H]2CC[C@@H](c3ccccc3)CC2)cnn1C

>  <EC50>
149 nM

$$$$
>  <molecule>
CS(=O)(=O)N[C@H]1CCN(c2ccon2)[C@H]1CO[C@H]1CC[C@@H](c2ccccc2)CC1

>  <EC50>
102 nM

$$$$
>  <molecule>
Cn1cnc(N2CC[C@H](NS(C)(=O)=O)[C@@H]2CO[C@H]2CC[C@@H](c3ccccc3)CC2)n1 (relative stereo) [Example 5]

>  <EC50>
5960 nM

$$$$

List EC50 for every entry below, keeping the order given.
1. CS(=O)(=O)N[C@H]1CCN(c2cncc(C(F)(F)F)c2)[C@H]1CO[C@H]1CC[C@@H](c2ccccc2)CC1
2. CS(=O)(=O)N[C@H]1CCN(c2cncs2)[C@H]1CO[C@H]1CC[C@@H](c2ccccc2)CC1
3. CS(=O)(=O)N[C@H]1CCN(c2ncccc2OC(F)(F)F)[C@H]1CO[C@H]1CC[C@@H](c2ccccc2)CC1

1: 944 nM; 2: 444 nM; 3: 162 nM

Below are 4 molecules. Give each one its EC50.
1. Cn1ccc(=O)c(F)c1N1CC[C@H](NS(C)(=O)=O)[C@@H]1CO[C@H]1CC[C@@H](c2ccccc2)CC1
2. Cn1cc(N2CC[C@H](NS(C)(=O)=O)[C@@H]2CO[C@H]2CC[C@@H](c3ccccc3)CC2)cn1 [Example 40]
3. Cn1ccc(=O)cc1N1CC[C@H](NS(C)(=O)=O)[C@@H]1CO[C@H]1CC[C@@H](c2ccccc2)CC1
4. CS(=O)(=O)N[C@H]1CCN(c2ccsc2)[C@H]1CO[C@H]1CC[C@@H](c2ccccc2)CC1

["148 nM", "431 nM", "52.4 nM", "347 nM"]

Read off the recorded EC50 for `COc1cccc(N2CC[C@H](NS(C)(=O)=O)[C@@H]2CO[C@H]2CC[C@@H](c3ccccc3)CC2)n1`
346 nM

----------
target: human OX2R (Homo sapiens, UniProt O43614); construct: expressed in transfected cells; host or cells: Chinese hamster ovary (CHO) cells, kept under G418 selection; assay: IPOne (IP-One) orexin receptor agonist assay in CHO cells expressing human OX2R; format: cell-based; conditions: human OX2R; percentage of sample raw value/mean max effect (reference compound at 1 uM with 100% activity)
property: % max agonist effect (Emax) (%)
One number for each entry, in %.

Study these solved cases before continuing.
>  <compound>
CS(=O)(=O)N[C@H]1CCN(c2cccc(C#N)n2)[C@H]1CO[C@H]1CC[C@@H](c2ccccc2)CC1

>  <unit.abbrev>
%

>  <% max agonist effect (Emax)>
68.5

$$$$
>  <compound>
Cc1ncc(N2CC[C@H](NS(C)(=O)=O)[C@@H]2CO[C@H]2CC[C@@H](c3ccccc3)CC2)s1 (relative stereo)

>  <unit.abbrev>
%

>  <% max agonist effect (Emax)>
92.1

$$$$
>  <compound>
CS(=O)(=O)N[C@H]1CCN(c2cccc(O)c2)[C@H]1CO[C@H]1CC[C@@H](c2ccccc2)CC1

>  <unit.abbrev>
%

>  <% max agonist effect (Emax)>
94.4

$$$$
>  <compound>
CS(=O)(=O)N[C@H]1CCN(c2nccc(O)c2F)[C@H]1CO[C@H]1CC[C@@H](c2ccccc2)CC1 [Example 72]

>  <unit.abbrev>
%

>  <% max agonist effect (Emax)>
99.9

$$$$
>  <compound>
CS(=O)(=O)N[C@H]1CCN(c2nc(O)cs2)[C@H]1CO[C@H]1CC[C@@H](c2ccccc2)CC1

>  <unit.abbrev>
%

>  <% max agonist effect (Emax)>
97.2

$$$$

Lab note: each compound below needs its % max agonist effect (Emax) filled in.
1. Cc1cncc(N2CC[C@H](NS(C)(=O)=O)[C@@H]2CO[C@H]2CC[C@@H](c3ccccc3)CC2)n1
2. Cc1cc(N2CC[C@H](NS(C)(=O)=O)[C@@H]2CO[C@H]2CC[C@@H](c3ccccc3)CC2)cnc1CO
3. CS(=O)(=O)N[C@H]1CCN(c2ncccc2O)[C@H]1CO[C@H]1CC[C@@H](c2ccccc2)CC1 [Example 137]
4. Cc1nc(N2CC[C@H](NS(C)(=O)=O)[C@@H]2CO[C@H]2CC[C@@H](c3ccccc3)CC2)cs1
5. CS(=O)(=O)N[C@H]1CCN(c2nccs2)[C@H]1CO[C@H]1CC[C@@H](c2ccccc2)CC1
6. CS(=O)(=O)N[C@H]1CCN(c2ccnc(CO)c2)[C@H]1CO[C@H]1CC[C@@H](c2ccccc2)CC1
7. COc1ccncc1N1CC[C@H](NS(C)(=O)=O)[C@@H]1CO[C@H]1CC[C@@H](c2ccccc2)CC1

[100.6, 97.2, 100.5, 97.7, 98.9, 90.4, 100.3]

Look up % max agonist effect (Emax) for the entries below, preserving their order.
1. CS(=O)(=O)N[C@H]1CCN(c2cc(O)ncn2)[C@H]1CO[C@H]1CC[C@@H](c2ccccc2)CC1
2. C[C@@H]1C[C@H](NS(=O)(=O)N(C)C)[C@H](CO[C@H]2CC[C@@H](c3cccc(F)c3)CC2)N1c1nccc(O)c1F
3. CS(=O)(=O)N[C@H]1CCN(c2cscn2)[C@H]1CO[C@H]1CC[C@@H](c2ccccc2)CC1

99.4
100.8
102

Please state % max agonist effect (Emax) for every compound in the list that follows.
1. COC[C@@H]1C[C@H](NS(C)(=O)=O)[C@H](CO[C@H]2CC[C@@H](c3cccc(F)c3)CC2)N1c1cc(O)c(F)cn1
2. CS(=O)(=O)N[C@H]1CCN(c2ccc(OC(F)F)nc2)[C@H]1CO[C@H]1CC[C@@H](c2ccccc2)CC1
3. CS(=O)(=O)N[C@H]1CCN(c2ccc(C(F)(F)F)cn2)[C@H]1CO[C@H]1CC[C@@H](c2ccccc2)CC1

1: 101.1; 2: 100.9; 3: 70.8

For every listed record, write down its % max agonist effect (Emax).
1. CS(=O)(=O)N[C@H]1CCN(c2nccc(O)c2F)[C@H]1CO[C@H]1CC[C@@H](c2ccccc2)CC1 [Example 117]
2. CS(=O)(=O)N[C@H]1CCN(c2cncc(C(F)(F)F)c2)[C@H]1CO[C@H]1CC[C@@H](c2ccccc2)CC1
3. CS(=O)(=O)N[C@H]1CCN(c2cc(C(F)(F)F)ncn2)[C@H]1CO[C@H]1CC[C@@H](c2ccccc2)CC1
4. CS(=O)(=O)N[C@H]1CCN(c2nccc(O)c2F)[C@H]1COC1CCC(c2ccccc2C(F)(F)F)CC1 (stereo partly shown)
5. Cc1c(N2CC[C@H](NS(C)(=O)=O)[C@@H]2CO[C@H]2CC[C@@H](c3ccccc3)CC2)cnn1C
6. CS(=O)(=O)N[C@H]1CCN(c2cc(O)c(F)cn2)[C@H]1CO[C@H]1CC[C@@H](c2cccc(F)c2)CC1

1: 100.7; 2: 95.1; 3: 43.4; 4: 101.7; 5: 100.0; 6: 101.2

----------
Target: human OX2R (Homo sapiens)
Sequence (O43614 1-444): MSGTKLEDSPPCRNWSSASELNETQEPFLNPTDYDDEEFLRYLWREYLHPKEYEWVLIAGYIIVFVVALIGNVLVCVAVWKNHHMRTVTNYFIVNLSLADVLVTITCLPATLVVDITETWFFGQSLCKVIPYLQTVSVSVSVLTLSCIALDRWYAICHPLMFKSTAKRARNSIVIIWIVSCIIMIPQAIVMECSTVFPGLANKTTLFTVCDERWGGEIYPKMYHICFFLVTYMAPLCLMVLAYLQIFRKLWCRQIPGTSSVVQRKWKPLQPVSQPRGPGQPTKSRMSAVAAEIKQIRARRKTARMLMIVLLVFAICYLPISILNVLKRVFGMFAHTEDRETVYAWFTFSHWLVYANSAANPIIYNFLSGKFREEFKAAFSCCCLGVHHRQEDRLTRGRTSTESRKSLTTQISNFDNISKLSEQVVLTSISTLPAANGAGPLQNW
Assay: IPOne (IP-One) orexin receptor agonist assay in CHO cells expressing human OX2R
Settings: CHO cells expressing human OX2R; IP-One detection; 2 hours incubation; four parameter logistic fit; read-out: OX2R Potency, EC50
I'd appreciate it if you marked entries True when EC50 is lower than 200 nM and False when it is not.

>  <compound>
CS(=O)(=O)N[C@H]1CCN(c2ccc(=O)n(C(F)F)c2)[C@H]1CO[C@H]1CC[C@@H](c2ccccc2)CC1 [Example 23]

>  <tested.on>
human OX2R (Homo sapiens)

>  <label.value>
False

$$$$
>  <compound>
Cc1nc(-c2ccccc2)sc1N1CC[C@H](NS(C)(=O)=O)[C@@H]1CO[C@H]1CC[C@@H](c2ccccc2)CC1 (relative stereo) [Example 11]

>  <tested.on>
human OX2R (Homo sapiens)

>  <label.value>
False

$$$$
>  <compound>
CS(=O)(=O)N[C@H]1CCN(c2ccccn2)[C@H]1CO[C@H]1CC[C@@H](c2ccccc2)CC1 [Example 16]

>  <tested.on>
human OX2R (Homo sapiens)

>  <label.value>
True

$$$$
>  <compound>
COc1ccc(N2CC[C@H](NS(C)(=O)=O)[C@@H]2CO[C@H]2CC[C@@H](c3ccccc3)CC2)cn1 [Example 53]

>  <tested.on>
human OX2R (Homo sapiens)

>  <label.value>
False

$$$$
>  <compound>
CS(=O)(=O)N[C@H]1CCN(c2ccc(F)c(C(F)F)c2)[C@H]1CO[C@H]1CC[C@@H](c2ccccc2)CC1 [Example 21]

>  <tested.on>
human OX2R (Homo sapiens)

>  <label.value>
False

$$$$

Please determine if CS(=O)(=O)N[C@H]1CCN(c2ccc(OCCF)cc2)[C@H]1CO[C@H]1CC[C@@H](c2ccccc2)CC1 [Example 36] is below 200 nM in terms of EC50.
False

Problem: For the compound CS(=O)(=O)N[C@H]1CCN(c2cc(C(F)F)cc(C(F)F)n2)[C@H]1CO[C@H]1CC[C@@H](c2ccccc2)CC1 [Example 142] , is EC50 under 200 nM?
False

Input COC(=O)c1cnc(N2CC[C@H](NS(C)(=O)=O)[C@@H]2CO[C@H]2CC[C@@H](c3ccccc3)CC2)s1 [Example 104] ; condition: EC50 strictly below 200 nM. Does it hold?
False

Does the reported EC50 of Cc1cc(N2CC[C@H](NS(C)(=O)=O)[C@@H]2CO[C@H]2CC[C@@H](c3ccccc3)CC2)cnc1CO [Example 45] stay below 200 nM?
False

Answer whether the compound C[C@@H]1C[C@H](NS(=O)(=O)N(C)C)[C@H](CO[C@H]2CC[C@@H](c3cccc(F)c3)CC2)N1c1cc(O)ccn1 [Example 157] has EC50 strictly less than 200 nM
True

I'd appreciate it if you could check whether COc1ccnc(N2CC[C@H](NS(C)(=O)=O)[C@@H]2CO[C@H]2CC[C@@H](c3ccccc3)CC2)c1F [Example 115] has EC50 smaller than 200 nM.
False

Dear colleague, could you confirm whether EC50 of CS(=O)(=O)N[C@H]1CCN(c2cccc(O)c2)[C@H]1CO[C@H]1CC[C@@H](c2ccccc2)CC1 [Example 155] falls below 200 nM? Thanks.
False

Does the reported EC50 of the following compound sit strictly below 200 nM? CS(=O)(=O)N[C@H]1CCN(c2ccc(C#N)nc2)[C@H]1CO[C@H]1CC[C@@H](c2ccccc2)CC1 [Example 145]
True

Please check: EC50 for CS(=O)(=O)N[C@H]1CCN(c2cnc3cc[nH]c3c2)[C@H]1CO[C@H]1CC[C@@H](c2ccccc2)CC1 (relative stereo) [Example 7] , strictly under 200 nM or not?
True
